Biological target: Neuraminidase (Influenza A virus (strain A/Brevig Mission/1/1918 H1N1) (Influenza Avirus (strain A/South Carolina/1/1918 H1N1)))
Sequence (Q9IGQ6 whole entry): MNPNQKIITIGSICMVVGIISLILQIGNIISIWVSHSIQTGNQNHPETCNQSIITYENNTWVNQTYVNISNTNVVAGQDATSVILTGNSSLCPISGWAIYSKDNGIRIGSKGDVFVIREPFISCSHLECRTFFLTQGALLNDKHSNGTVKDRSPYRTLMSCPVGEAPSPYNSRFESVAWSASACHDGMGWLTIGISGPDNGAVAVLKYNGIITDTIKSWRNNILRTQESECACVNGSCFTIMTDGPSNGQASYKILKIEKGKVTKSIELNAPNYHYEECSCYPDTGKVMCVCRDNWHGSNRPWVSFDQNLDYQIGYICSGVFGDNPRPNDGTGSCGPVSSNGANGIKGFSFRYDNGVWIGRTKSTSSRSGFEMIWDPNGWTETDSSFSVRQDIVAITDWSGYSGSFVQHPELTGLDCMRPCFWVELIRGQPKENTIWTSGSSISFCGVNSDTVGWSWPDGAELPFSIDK
Test: Inhibition of Influenza A virus (A/Brevig Mission/1/1918(H1N1)) recombinant soluble neuraminidase using 2'-4(methylumbelliferyl)-alpha-D-N-acetylneuraminic acid substrate by fluorimetric assay
Readout label: Ki (nM)
Numeric only. Scale: nM

compound="CCC(CC)[C@H](NC(C)=O)[C@@H]1[C@H](O)[C@@H](C(=O)O)C[C@H]1NC(=N)N [PERAMIVIR ANHYDROUS]" reported_measurement=0.83

Next compound, Ki to be filled in.
Need Ki, item `CCC(CC)[C@H](NC(C)=O)[C@@H]1[C@H](O)[C@@H](C(=O)O)C[C@H]1N`
7.5
